# protocolNotes: Growth inhibition of mouse L929 cells incubated for 3 days by MTT assay
# Assay type: cell-based
# testSettings: time 3 day
valueType: GI50 at 72 h

INSERT INTO assay_data (querysmiles, valuetype, assayresult) VALUES
  ('CC(C)(C)c1cc(NC(=O)Nc2ccc(Nc3ncnc4c3OCCCN4)cc2)no1', 'GI50 at 72 h', '> 10 µM');

* * *

# systemUnderTest: Serine/threonine-protein kinase WNK3 (Homo sapiens, UniProt Q9BYP7)
# Sequence (Q9BYP7 whole entry, the tested form may be a part): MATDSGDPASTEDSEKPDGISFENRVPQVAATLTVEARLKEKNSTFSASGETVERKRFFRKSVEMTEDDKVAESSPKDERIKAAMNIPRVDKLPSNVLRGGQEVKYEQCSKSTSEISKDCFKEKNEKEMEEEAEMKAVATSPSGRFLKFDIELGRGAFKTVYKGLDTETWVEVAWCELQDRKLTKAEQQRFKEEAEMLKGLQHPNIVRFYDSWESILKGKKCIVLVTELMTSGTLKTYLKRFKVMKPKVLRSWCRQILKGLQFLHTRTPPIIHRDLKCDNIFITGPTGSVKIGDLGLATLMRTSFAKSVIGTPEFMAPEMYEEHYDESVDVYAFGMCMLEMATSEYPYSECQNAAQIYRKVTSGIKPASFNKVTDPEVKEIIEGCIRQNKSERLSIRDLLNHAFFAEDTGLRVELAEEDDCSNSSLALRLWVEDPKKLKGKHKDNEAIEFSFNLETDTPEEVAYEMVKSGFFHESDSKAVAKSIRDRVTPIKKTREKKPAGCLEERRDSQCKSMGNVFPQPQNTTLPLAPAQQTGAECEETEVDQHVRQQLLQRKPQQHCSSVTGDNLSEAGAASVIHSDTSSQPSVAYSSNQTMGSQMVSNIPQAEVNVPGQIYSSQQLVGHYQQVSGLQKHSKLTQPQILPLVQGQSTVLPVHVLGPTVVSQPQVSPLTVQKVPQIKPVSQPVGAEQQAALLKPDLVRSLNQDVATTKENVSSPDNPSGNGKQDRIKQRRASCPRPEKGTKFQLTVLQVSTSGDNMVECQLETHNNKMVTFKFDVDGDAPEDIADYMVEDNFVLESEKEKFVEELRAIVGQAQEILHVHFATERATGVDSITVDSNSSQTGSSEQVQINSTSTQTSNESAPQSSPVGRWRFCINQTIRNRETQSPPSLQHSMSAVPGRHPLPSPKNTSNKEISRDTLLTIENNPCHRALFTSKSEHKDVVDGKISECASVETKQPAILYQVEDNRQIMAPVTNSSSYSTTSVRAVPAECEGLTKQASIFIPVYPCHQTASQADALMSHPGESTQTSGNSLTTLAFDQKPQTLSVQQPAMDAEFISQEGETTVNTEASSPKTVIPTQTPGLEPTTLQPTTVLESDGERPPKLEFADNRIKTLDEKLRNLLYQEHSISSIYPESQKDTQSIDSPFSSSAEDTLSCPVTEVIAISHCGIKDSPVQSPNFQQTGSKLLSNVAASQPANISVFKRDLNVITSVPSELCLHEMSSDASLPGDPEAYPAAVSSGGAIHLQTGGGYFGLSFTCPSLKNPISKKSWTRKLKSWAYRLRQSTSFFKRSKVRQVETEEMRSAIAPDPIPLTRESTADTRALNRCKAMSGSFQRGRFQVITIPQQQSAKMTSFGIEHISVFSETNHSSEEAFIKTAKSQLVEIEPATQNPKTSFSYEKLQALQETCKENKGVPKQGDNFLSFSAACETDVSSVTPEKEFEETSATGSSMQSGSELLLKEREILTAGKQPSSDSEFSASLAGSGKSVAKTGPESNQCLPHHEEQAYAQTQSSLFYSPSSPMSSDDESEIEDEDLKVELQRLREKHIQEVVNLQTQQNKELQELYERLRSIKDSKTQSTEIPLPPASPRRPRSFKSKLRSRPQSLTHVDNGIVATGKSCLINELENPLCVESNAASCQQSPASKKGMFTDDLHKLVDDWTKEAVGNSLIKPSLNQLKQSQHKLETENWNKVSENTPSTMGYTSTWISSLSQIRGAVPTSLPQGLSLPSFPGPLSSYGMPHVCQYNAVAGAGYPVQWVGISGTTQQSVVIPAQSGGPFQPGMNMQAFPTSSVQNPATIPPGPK
# protocolNotes: Inhibition of recombinant human WNK3 (1 to 434 residues) using myelin basic protein as substrate incubated for 40 mins in presence of [gamma33P]ATP by scintillation counting based radiometry assay
pIC50: −log10 of the molar value.
valueType: pIC50

INSERT INTO assay_data (querysmiles, assayresult) VALUES
  ('CC(C)(C)c1cc(NC(=O)Nc2ccc(Nc3ncnc4c3OCCCN4)cc2)no1', 6.31);

* * *

# protocolNotes: Growth inhibition of […] NIH3T3 cells harboring RET C634Y mutant incubated for 3 days by MTT assay
# Format: functional
# testSettings: NIH3T3, 72 h; time 3 day
valueType: log10 of GI50 (log10 of the value in nM)

INSERT INTO assay_data (compound, valuetype, assayresult) VALUES
  ('COc1cc(NC(=O)Nc2cc(C(C)(C)C)on2)ccc1Nc1ncnc2c1OCCN2', 'log10 of GI50', 3.43),
  ('CC(C)(C)c1cc(NC(=O)Nc2ccc(Nc3ncnc4c3OCCN4)c(F)c2)no1', 'log10 of GI50', 2.59),
  ('COc1cc2/c(=N/c3ccc(Br)cc3F)nc[nH]c2cc1OCC1CCN(C)CC1 [VANDETANIB]', 'log10 of GI50', 2.53),
  ('COc1cc2nccc(Oc3ccc(NC(=O)C4(C(=O)Nc5ccc(F)cc5)CC4)cc3)c2cc1OC [CABOZANTINIB]', 'log10 of GI50', 2.00),
  ('CC(C)N1CCOc2c(Nc3ccc(NC(=O)Nc4cc(C(C)(C)C)on4)cc3)ncnc21', 'log10 of GI50', 3.49),
  ('CNC(=O)c1cc(Oc2ccc(NC(=O)Nc3ccc(Cl)c(C(F)(F)F)c3)cc2)ccn1 [SORAFENIB]', 'log10 of GI50', 2.51),
  ('CC(C)(C)c1cc(NC(=O)Nc2ccc(Nc3ncnc4c3OCCN4)nc2)no1', 'log10 of GI50', 4.00),
  ('O=C(Nc1ccc(Nc2ncnc3c2OCCN3)cc1)Nc1cccc(-c2ccccc2)c1', 'log10 of GI50', 4.00);

* * *

# systemUnderTest: Mitogen-activated protein kinase kinase kinase kinase 5 (Homo sapiens, UniProt Q9Y4K4)
# Sequence (Q9Y4K4 whole entry): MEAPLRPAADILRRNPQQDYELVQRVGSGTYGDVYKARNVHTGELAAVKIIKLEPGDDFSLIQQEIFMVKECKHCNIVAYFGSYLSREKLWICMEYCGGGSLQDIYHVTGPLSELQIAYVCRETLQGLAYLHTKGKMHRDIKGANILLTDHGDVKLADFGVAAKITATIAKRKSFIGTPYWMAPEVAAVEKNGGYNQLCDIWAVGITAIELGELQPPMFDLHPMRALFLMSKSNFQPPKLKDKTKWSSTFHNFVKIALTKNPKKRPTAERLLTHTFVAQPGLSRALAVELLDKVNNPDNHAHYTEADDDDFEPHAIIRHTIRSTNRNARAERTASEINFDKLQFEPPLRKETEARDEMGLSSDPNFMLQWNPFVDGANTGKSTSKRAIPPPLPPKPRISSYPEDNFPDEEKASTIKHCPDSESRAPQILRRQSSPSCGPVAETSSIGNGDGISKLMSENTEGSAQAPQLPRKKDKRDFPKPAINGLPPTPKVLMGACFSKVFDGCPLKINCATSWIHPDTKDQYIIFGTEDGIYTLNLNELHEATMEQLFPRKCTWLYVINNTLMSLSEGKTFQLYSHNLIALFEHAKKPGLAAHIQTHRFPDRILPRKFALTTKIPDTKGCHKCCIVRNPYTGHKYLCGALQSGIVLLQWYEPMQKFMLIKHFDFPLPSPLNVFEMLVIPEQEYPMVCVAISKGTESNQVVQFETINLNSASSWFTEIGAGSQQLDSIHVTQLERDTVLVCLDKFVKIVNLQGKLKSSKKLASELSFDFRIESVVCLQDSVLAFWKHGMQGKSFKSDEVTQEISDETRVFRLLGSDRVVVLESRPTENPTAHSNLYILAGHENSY
# protocolNotes: Inhibition of recombinant human MAP4K5 using myelin basic protein as substrate incubated for 40 mins in presence of [gamma-33ATP by scintillation counting based radiometry assay
pIC50: −log10 of the molar value.
valueType: pIC50

INSERT INTO assay_data (querysmiles, assayresult) VALUES
  ('CC(C)(C)c1cc(NC(=O)Nc2ccc(Nc3ncnc4c3OCCCN4)cc2)no1', 6.15);

* * *

# systemUnderTest: Platelet-derived growth factor receptor alpha (Homo sapiens)
# Sequence (P16234 whole entry): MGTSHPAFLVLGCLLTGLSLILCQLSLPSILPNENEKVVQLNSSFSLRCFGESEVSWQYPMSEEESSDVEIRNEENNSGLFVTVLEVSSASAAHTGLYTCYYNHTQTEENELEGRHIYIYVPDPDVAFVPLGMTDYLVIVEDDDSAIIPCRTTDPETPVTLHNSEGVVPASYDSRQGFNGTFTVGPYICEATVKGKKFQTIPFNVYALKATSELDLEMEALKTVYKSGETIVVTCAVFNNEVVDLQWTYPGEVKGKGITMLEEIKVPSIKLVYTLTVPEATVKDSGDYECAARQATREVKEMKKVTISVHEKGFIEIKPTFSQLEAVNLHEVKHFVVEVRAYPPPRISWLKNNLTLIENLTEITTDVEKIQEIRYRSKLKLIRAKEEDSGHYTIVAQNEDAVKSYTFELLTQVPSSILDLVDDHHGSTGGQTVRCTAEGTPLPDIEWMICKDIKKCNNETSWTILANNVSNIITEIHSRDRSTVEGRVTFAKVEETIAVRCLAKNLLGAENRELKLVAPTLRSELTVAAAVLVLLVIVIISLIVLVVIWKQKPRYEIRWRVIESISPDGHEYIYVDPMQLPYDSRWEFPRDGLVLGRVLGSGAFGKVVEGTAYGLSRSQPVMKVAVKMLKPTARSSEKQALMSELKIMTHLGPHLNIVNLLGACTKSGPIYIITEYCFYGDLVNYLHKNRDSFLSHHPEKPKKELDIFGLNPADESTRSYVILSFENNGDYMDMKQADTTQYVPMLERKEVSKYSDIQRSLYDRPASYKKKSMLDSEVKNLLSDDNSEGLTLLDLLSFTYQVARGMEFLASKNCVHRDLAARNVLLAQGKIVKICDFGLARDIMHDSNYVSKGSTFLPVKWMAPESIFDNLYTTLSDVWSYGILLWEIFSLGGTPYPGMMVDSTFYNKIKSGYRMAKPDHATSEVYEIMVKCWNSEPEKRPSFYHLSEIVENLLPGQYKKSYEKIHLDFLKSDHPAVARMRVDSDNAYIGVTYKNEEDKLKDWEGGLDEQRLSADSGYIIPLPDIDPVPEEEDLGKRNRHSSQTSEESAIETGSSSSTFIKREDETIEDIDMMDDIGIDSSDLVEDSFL
valueType: IC50 (µM)

INSERT INTO results (querysmiles, systemundertest, valuetype, measureunit, assayresult) VALUES
  ('CC(C)(C)c1cc(NC(=O)Nc2ccc(Nc3ncnc4c3OCCCN4)cc2)no1', 'Platelet-derived growth factor receptor alpha (Homo sapiens)', 'IC50', 'µM', 0.262);
